FYI, the data here is from the supplement of paper PMC10567573.

B1: ESRRG (parent)
chain: YSCPATNECEITKRRRKSCQACRF

# Variants of: B1
# runDescription: protein stability index of a GFP-peptide fusion (GPS, HEK-293T) (PSI 1-6); higher = more stable;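 note: lentivirally expressed fusions sorted by FACS into six bins by GFP to DsRed ratio, PSI derived from sequencing read proportions per bin multiplied by bin number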
# conditions: c terminus: a fixed tail appended
measuredParameter: protein stability index

Example variants with recorded protein stability index:
1) R14M :: 3.09
2) A5M :: 3
3) E8W :: 1.96

Shifting focus to the variant that follows.
Return the recorded protein stability index value; entry: `C22L` 3.71
